System: H. pylori ATCC 43504
Experiment: Minimum Inhibitory Concentration (MIC) blood agar plate growth inhibition
Assay type: cell-based, Helicobacter pylori
Details: Tables IX-XIII; final drug concentration 12.5 μg/ml
Description: Subsequent dilutions were made in ethanol immediately prior to use. […] Subsequent dilutions were made in BHI medium (Brain heart infusion broth, Difco #0037-07-0) immediately prior to use. Blood agar base (BAB) was prepared containing 1.5% agar and autoclaved. 20 ml samples of autoclaved BAB were poured into 50 mL tubes and placed in a 56° C. water bath. […] Inhibition of growth was determined by the amount of colonies present within the petri plate. […]
recorded-endpoint: growth (amount of colonies present within the petri plate)

IN: Could you tell me which growth (amount of colonies present within the petri plate) is on file for CCC1(C2OC(C3OC(O)(COC(=O)Nc4cccnc4)C(C)CC3C)CC2C)CCC(C2(C)CCC3(CC(O)C(C)C(C(C)C(OC)C(C)C(=O)O)O3)O2)O1 (stereo not shown) [Monensin pyridyl carbamate, 26-O-(3-pyridylcarbamoyl) monensin] ?
OUT: No growth

IN: Consider the compound CCC1(C2OC(C3OC(O)(COC(=O)NC(C)NC(=O)OCC4c5ccccc5-c5ccccc54)C(C)CC3C)CC2C)CCC(C2(C)CCC3(CC(O)C(C)C(C(C)C(OC)C(C)C(=O)O)O3)O2)O1 (stereo not shown) [Fmoc-Ala-monensin] and give its measured growth (amount of colonies present within the petri plate).
OUT: No growth

IN: Please look up its growth (amount of colonies present within the petri plate): CC[C@@]1([C@@H]2O[C@@H]([C@H]3O[C@@](O)(CO)[C@H](C)C[C@@H]3C)C[C@@H]2C)CC[C@H]([C@]2(C)CC[C@]3(C[C@H](O)[C@@H](C)[C@@H]([C@@H](C)[C@@H](OC)[C@H](C)C(=O)O)O3)O2)O1 [Monensin, monensin]
OUT: No growth
